system: ACHN; assay: NCI tumour cell line growth inhibition, 48 h
Activity calls are given as the source filed them. Cut-off read from the data, not from the text of the source: active = GI50 up to about 1.1 µM and inactive = higher.
// one of active, inactive, no free text

Input line: I would be grateful if you could indicate the recorded call for `C[C@H](O)CCC(=O)c1ccoc1` .
Output line: inactive

Input line: I would be grateful if you could indicate the recorded call for COC1O[C@@H]2COC(C)(C)O[C@@H]2C(=O)N1Nc1ccc([N+](=O)[O-])cc1 (stereo partly specified) .
Output line: inactive

Input line: I would be grateful if you could indicate the recorded call for C[n+]1c2ccccc2c(NC(CS)C(=O)O)c2ccccc21 (stereo unspecified) .
Output line: inactive

Input line: I would be grateful if you could indicate the recorded call for COc1cc(/C=C/C2=NN(c3cccc(S(=O)(=O)O)c3)C3(C2)SCC(=O)N3c2nc3ccccc3s2)cc(OC)c1OC (stereo unspecified) .
Output line: inactive

Input line: I would be grateful if you could indicate the recorded call for `COc1cccc(/N=N/C(=N\NC(=O)c2ccc(C)cc2)c2ccc(N(CCC#N)CCC#N)cc2C)c1` .
Output line: inactive

Input line: I would be grateful if you could indicate the recorded call for `Cc1ccc(C2=CC(=O)/C(=C\C(=O)c3ccc(Br)cc3)O2)c(C)c1` .
Output line: inactive

Input line: I would be grateful if you could indicate the recorded call for `CN(C)c1ccc(/C=c2/c3ccccc3n3c2cc(/C=C/c2ccccc2)[n+]3C)cc1` .
Output line: active

Input line: I would be grateful if you could indicate the recorded call for CCOC(=O)C1=C(C)N2CCCOC2(C)C(C(=O)OC)C1c1cccc([N+](=O)[O-])c1 (stereo unspecified) .
Output line: inactive

Input line: I would be grateful if you could indicate the recorded call for CC(=O)OC(C[C@H](C)[C@@H]1CC[C@]2(C)C3=CCC4C(C)(C)C(=O)CC[C@]4(C)C3CCC12C)C1OC1(C)C (stereo partly specified) .
Output line: inactive

Input line: I would be grateful if you could indicate the recorded call for COc1ccc2c(c1)Oc1cc(O)ccc1[C@@H]2c1ccccc1C(=O)NC(C)c1ccccc1 (stereo partly specified) .
Output line: inactive

Input line: I would be grateful if you could indicate the recorded call for `Cc1cc([N+](=O)[O-])c(C)c(Br)c1C` .
Output line: inactive

Input line: I would be grateful if you could indicate the recorded call for `CCNC(=S)N/N=C/c1cc(OC)ccc1O` .
Output line: inactive

Input line: I would be grateful if you could indicate the recorded call for `Oc1cc(-c2ccc3c(c2)OCO3)nc2cc3c(cc12)OCO3` .
Output line: inactive

Input line: I would be grateful if you could indicate the recorded call for `CCCCc1c2c(c(C)c3c1C(=O)OC3)Oc1ccccc1O2` .
Output line: inactive

Input line: I would be grateful if you could indicate the recorded call for O=S(=O)(/C=C/C=C/[S+]([O-])c1ccccc1)c1ccccc1 (stereo unspecified) .
Output line: inactive

Input line: I would be grateful if you could indicate the recorded call for `c1ccc([P+](CCSCCSCC[P+](c2ccccc2)(c2ccccc2)c2ccccc2)(c2ccccc2)c2ccccc2)cc1` .
Output line: inactive

Input line: I would be grateful if you could indicate the recorded call for `COc1cc(C=C2C(=O)NC(=O)NC2=O)cc(OC)c1OC` .
Output line: inactive

Input line: I would be grateful if you could indicate the recorded call for `O=C1[C@@H]2C3C=CC([C@H]4C(=O)N(CO)C(=O)[C@@H]34)[C@@H]2C(=O)N1CO` .
Output line: inactive

Input line: I would be grateful if you could indicate the recorded call for `Cc1cc(C#N)c[n+](C)c1` .
Output line: inactive

Input line: I would be grateful if you could indicate the recorded call for `CCOc1ccc(-n2c(=O)c3nn4c(=O)n(-c5ccc(OCC)cc5)c(=O)c4nn3c2=O)cc1` .
Output line: inactive

Input line: I would be grateful if you could indicate the recorded call for `O=c1c(-c2ccccc2Cl)coc2cc(F)ccc12` .
Output line: inactive
